Hey, just so you know, these numbers are from ChEMBL document CHEMBL5537179.

System: Leukemia cell
Experiment: Antitumor activity against human Leukemia cells assessed as reduction in cell growth incubated for 72 hrs by MTT assay
Format: functional, cell-based
quantity.name: pEC50
Reminder that pEC50 is minus the log10 of a molar concentration.

Q) Tell me pEC50 of `N[C@H]1CC[C@H](N[C@@H]2C[C@H]2c2ccccc2)CC1` when tested on Leukemia cell.
A) 10.00

###

Assay: Half life in BALB/c mouse plasma at 5 mg/kg, ip measured after 24 hrs by LC-MS/MS analysis
Format: ADME, organism-based
quantity.name: half-life

Q) Look up and state reported half-life for `N[C@H]1CC[C@H](N[C@@H]2C[C@H]2c2ccccc2)CC1`
A) 10 h

###

Assay: Oral bioavailability in BALB/c mouse at 5 mg/kg measured after 24 hrs by LC-MS/MS analysis
Format: ADME, organism-based
Settings: in vivo
quantity.name: bioavailability (%)
Value expressed in %; do not type the unit.

Q) Look up and state reported bioavailability for `N[C@H]1CC[C@H](N[C@@H]2C[C@H]2c2ccccc2)CC1`
A) 77

###

Experiment: Cmax in human at 5 mg/kg, po
Assay type: ADME, organism-based
Details: in vivo
quantity.name: Cmax
Give the value; after it, write the unit.

Q) Look up and state reported Cmax for COc1ccc(-c2c(-c3ccc(C#N)c(F)c3)nc(N3CCC(N)CC3)n(C)c2=O)cc1F.O=S(=O)(O)c1ccccc1 [PULRODEMSTAT BESILATE]
A) 19 ng/mL

###

Assay: in vitro
Details: human, THP-1 cells
quantity.name: IC50 at 72 h
Give the value; after it, write the unit.

Q) Look up and state reported IC50 at 72 h for COc1ccc(-c2c(-c3ccc(C#N)c(F)c3)nc(N3CCC(N)CC3)n(C)c2=O)cc1F.O=S(=O)(O)c1ccccc1 [PULRODEMSTAT BESILATE]
A) 7 nM

###

Target: Bromodomain-containing protein 4 (Homo sapiens, UniProt O60885)
Assay: Inhibition of human BRD4 BD1 by TR-FRET assay
quantity.name: IC50 (nM)
Value expressed in nM; do not type the unit.

Q) Look up and state reported IC50 for `C/C(=N\NC(=O)c1cccc(S(=O)(=O)N2CCOCC2)c1)c1cc(Cl)ccc1O`
A) 77

###

Biological target: UniProt O60341
Experiment: Inhibition of human LSD1 expressed in Escherichia coli Rosetta (DE3) cells using H3K4me2 peptide as substrate and measured after 1 hr by fluorescence based analysis
quantity.name: pIC50
Reminder that pIC50 is minus the log10 of a molar concentration.

Q) Look up and state reported pIC50 for `O=S1(=O)CCCN(S(=O)(=O)c2ccc(-c3cnc(C4CC4)o3)cc2)c2ccccc21`
A) 5.55

###

Assay: Half life in human plasma
Assay type: ADME, cell-free
quantity.name: half-life (h)
Value expressed in h; do not type the unit.

Q) Look up and state reported half-life for `Nc1nnc(CN[C@@H]2C[C@H]2c2ccc(OCc3ccccc3)cc2)o1`
A) 22

###

Biological target: Tubulin
Assay: Inhibition of tubulin polymerization (unknown origin) by fluorescence based assay
quantity.name: pIC50
Reminder that pIC50 is minus the log10 of a molar concentration.

Q) Look up and state reported pIC50 for `O=S1(=O)CCCN(S(=O)(=O)c2ccc(-c3cnc(C4CC4)o3)cc2)c2ccccc21`
A) 5.51

###

quantity.name: IC50 (nM)
Value expressed in nM; do not type the unit.

Q) Tell me IC50 of Nc1ccccc1NC(=O)c1ccc(CCCC(=O)Nc2ccc(C3CC3N)cc2)cc1 (configuration not stated) when tested on Lysine-specific histone demethylase 1A (Homo sapiens, UniProt O60341).
A) 300

###

Test: Tmax in human at 5 mg/kg, po
Assay type: ADME, organism-based
Conditions: in vivo
quantity.name: Tmax

Q) Look up and state reported Tmax for COc1ccc(-c2c(-c3ccc(C#N)c(F)c3)nc(N3CCC(N)CC3)n(C)c2=O)cc1F.O=S(=O)(O)c1ccccc1 [PULRODEMSTAT BESILATE]
A) 4 h

###

Target: Histone deacetylase 1 (Homo sapiens, UniProt Q13547)
Sequence (Q13547 whole entry): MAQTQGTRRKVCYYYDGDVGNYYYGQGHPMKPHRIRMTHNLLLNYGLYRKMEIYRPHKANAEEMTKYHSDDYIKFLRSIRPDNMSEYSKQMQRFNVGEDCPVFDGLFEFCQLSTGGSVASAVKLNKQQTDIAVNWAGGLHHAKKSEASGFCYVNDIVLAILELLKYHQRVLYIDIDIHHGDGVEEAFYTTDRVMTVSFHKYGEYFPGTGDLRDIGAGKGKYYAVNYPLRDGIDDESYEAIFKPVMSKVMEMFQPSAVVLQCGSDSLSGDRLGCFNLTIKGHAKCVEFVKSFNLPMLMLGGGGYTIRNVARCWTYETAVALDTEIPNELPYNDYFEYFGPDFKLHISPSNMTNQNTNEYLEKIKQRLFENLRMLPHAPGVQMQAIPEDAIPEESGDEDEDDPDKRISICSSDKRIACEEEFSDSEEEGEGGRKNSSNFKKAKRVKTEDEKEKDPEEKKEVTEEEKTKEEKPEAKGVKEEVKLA
Assay: Inhibition of HDAC1 (unknown origin)
quantity.name: pIC50
Reminder that pIC50 is minus the log10 of a molar concentration.

Q) Look up and state reported pIC50 for Nc1ccccc1NC(=O)c1ccc(CCCC(=O)Nc2ccc(C3CC3N)cc2)cc1 (stereo unspecified)
A) 6.52
